In this section, each of the compounds is paired with its reported Ratio.
- target entity: Adrenergic receptor alpha-2 (Rattus norvegicus) (UniProt P22086+P19328+P22909)
- assay summary: Ratio of binding affinity towards Alpha-2 and alpha-1 adrenergic receptor
- Format: protein assay
endpoint name: Ratio

COc1ccccc1OCCN1CCN(c2ccc(=O)n(CCCN3CCN(c4ccccc4OC)CC3)n2)CC1 34.8
COc1ccccc1OCCN1CCN(c2cnn(CCCCCCCCN3CCN(c4ccccc4OC)CC3)c(=O)c2Cl)CC1 6.5
COc1ccccc1N1CCN(CCCCCCCn2nc(N3CCN(C(=O)c4ccco4)CC3)ccc2=O)CC1 1.7
COc1ccccc1N1CCN(CCCCCCn2ncc(N3CCN(C(=O)c4ccco4)CC3)c(Cl)c2=O)CC1 6
COc1ccccc1OCCN1CCN(c2ccc(=O)n(CCCCCN3CCN(c4ccccc4OC)CC3)n2)CC1 5.4
COc1ccccc1N1CCN(CCCCn2nc(N3CCN(C(=O)c4ccco4)CC3)ccc2=O)CC1 4.4
COc1ccccc1OCCN1CCN(c2cnn(CCCCCCN3CCN(c4ccccc4Cl)CC3)c(=O)c2Cl)CC1 6
COc1ccccc1OCCN1CCN(c2cnn(CCCCN3CCN(c4ccccc4OC)CC3)c(=O)c2Cl)CC1 53
COc1ccccc1OCCN1CCN(c2ccc(=O)n(CCN3CCN(c4ccccc4OC)CC3)n2)CC1 33.2
COc1ccccc1OCCN1CCN(c2cnn(CCCCCCN3CCN(c4ccccc4OC)CC3)c(=O)c2Cl)CC1 2.3
O=C(c1ccco1)N1CCN(c2ccc(=O)n(CCCN3CCN(c4ccccc4Cl)CC3)n2)CC1 20.3
O=C(c1ccco1)N1CCN(c2cnn(CCCCCCN3CCN(c4ccccc4Cl)CC3)c(=O)c2Cl)CC1 11.6
O=C(c1ccco1)N1CCN(c2cnn(CCCN3CCN(c4ccccc4Cl)CC3)c(=O)c2Cl)CC1 24.3
COc1ccccc1N1CCN(CCCCCn2nc(N3CCN(C(=O)c4ccco4)CC3)ccc2=O)CC1 5.8
COc1ccccc1OCCN1CCN(c2cnn(CCCN3CCN(c4ccccc4Cl)CC3)c(=O)c2Cl)CC1 7.8
COc1ccccc1OCCN1CCN(c2ccc(=O)n(CCN3CCN(c4ccccc4Cl)CC3)n2)CC1 20.5
COc1ccccc1OCCN1CCN(c2cnn(CCN3CCN(c4ccccc4OC)CC3)c(=O)c2Cl)CC1 25.5
O=C(c1ccco1)N1CCN(c2ccc(=O)n(CCCCCCN3CCN(c4ccccc4Cl)CC3)n2)CC1 4
